The origin of these recorded values is patent US8648089B2.

Biological target: B-Raf-V600E kinase (Homo sapiens, UniProt P15056, V600E)
Sequence (P15056 whole entry V600E): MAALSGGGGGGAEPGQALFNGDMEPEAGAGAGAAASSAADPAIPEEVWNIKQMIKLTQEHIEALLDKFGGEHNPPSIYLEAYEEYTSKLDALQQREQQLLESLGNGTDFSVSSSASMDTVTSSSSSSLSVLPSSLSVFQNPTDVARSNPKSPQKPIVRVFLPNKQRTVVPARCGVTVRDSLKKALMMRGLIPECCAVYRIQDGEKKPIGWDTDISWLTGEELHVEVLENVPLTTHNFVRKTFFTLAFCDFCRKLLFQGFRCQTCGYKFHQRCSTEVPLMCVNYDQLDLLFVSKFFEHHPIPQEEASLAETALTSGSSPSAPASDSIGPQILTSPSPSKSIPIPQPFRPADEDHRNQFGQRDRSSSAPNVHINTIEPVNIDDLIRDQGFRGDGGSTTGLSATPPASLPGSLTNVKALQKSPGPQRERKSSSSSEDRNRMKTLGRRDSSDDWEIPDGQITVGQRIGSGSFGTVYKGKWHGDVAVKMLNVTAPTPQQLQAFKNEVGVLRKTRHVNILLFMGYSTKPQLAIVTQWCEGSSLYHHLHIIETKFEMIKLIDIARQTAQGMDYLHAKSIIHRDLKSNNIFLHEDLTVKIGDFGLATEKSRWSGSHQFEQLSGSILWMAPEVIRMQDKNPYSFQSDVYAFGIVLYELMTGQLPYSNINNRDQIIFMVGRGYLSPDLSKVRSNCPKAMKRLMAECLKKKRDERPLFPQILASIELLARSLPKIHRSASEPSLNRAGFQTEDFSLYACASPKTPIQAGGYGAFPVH
Assay: B-Raf kinase activity (kinase cascade assay)
Conditions: MEK1/Erk2/MBP, [γ-32P] ATP, read-out: B-Raf-V600E kinase inhibitory activity (IC50)

chemical.string	IC50
CNc1cc(-n2cc(-c3cccc(N)c3)c3ccc(-c4ccc(OC)cc4)cc32)ncn1	< 10 µM
CC(=O)Nc1cccc(-c2ccc3c(-c4ccc(OCCN(C)C)cc4)cn(-c4ccncc4)c3c2)c1	< 10 µM
CNc1cc(-n2cc(-c3ccc(OC)cc3)c3ccc(-c4cccc(NC(=O)Nc5ccccc5OC)c4)cc32)ncn1	< 10 µM
